test description: inhibition of PAO1 biofilm formation – strain PAO1, LB-PBS medium, absorbance 600 nm, primary screen (AID 1176); also: test concentration not given here
setup conditions: P. aeruginosa PAO1 growth/biofilm, A600, 12 h; higher = more signal
Calls of active or inactive are those of the source. No rule for the calls is given here.
readout kind: z-score

COC(=O)[C@@]1(Cc2ccc(OC)cc2)[C@H]2c3cc(C(=O)N(C)C)n(Cc4ccc(C(F)(F)F)nc4)c3C[C@H]2CN1C(=O)c1ccccc1    -0.0019 (inactive)
CCCNC(=O)[C@@]1(Sc2ccc(C)cc2)CC(=O)N(Cc2ccccc2C(F)(F)F)[C@@H]1c1ccc(CO)cc1I    0.298 (inactive)

Any idea what z-score was measured for "CCOC(=O)C[C@H]1[C@H](OC(=O)c2ccc(C(=O)c3ccccc3)cc2)[C@@H](NC(=O)Cc2ccc(OC)cc2)c2cc(OCCCO)ccc2N1C(=O)c1ccc2ccccc2n1" ?
0.207 (inactive)

###

target desc: Neurogenic locus notch homolog protein 2 (Homo sapiens) (UniProt Q04721)
Sequence (Q04721 whole entry, looked up): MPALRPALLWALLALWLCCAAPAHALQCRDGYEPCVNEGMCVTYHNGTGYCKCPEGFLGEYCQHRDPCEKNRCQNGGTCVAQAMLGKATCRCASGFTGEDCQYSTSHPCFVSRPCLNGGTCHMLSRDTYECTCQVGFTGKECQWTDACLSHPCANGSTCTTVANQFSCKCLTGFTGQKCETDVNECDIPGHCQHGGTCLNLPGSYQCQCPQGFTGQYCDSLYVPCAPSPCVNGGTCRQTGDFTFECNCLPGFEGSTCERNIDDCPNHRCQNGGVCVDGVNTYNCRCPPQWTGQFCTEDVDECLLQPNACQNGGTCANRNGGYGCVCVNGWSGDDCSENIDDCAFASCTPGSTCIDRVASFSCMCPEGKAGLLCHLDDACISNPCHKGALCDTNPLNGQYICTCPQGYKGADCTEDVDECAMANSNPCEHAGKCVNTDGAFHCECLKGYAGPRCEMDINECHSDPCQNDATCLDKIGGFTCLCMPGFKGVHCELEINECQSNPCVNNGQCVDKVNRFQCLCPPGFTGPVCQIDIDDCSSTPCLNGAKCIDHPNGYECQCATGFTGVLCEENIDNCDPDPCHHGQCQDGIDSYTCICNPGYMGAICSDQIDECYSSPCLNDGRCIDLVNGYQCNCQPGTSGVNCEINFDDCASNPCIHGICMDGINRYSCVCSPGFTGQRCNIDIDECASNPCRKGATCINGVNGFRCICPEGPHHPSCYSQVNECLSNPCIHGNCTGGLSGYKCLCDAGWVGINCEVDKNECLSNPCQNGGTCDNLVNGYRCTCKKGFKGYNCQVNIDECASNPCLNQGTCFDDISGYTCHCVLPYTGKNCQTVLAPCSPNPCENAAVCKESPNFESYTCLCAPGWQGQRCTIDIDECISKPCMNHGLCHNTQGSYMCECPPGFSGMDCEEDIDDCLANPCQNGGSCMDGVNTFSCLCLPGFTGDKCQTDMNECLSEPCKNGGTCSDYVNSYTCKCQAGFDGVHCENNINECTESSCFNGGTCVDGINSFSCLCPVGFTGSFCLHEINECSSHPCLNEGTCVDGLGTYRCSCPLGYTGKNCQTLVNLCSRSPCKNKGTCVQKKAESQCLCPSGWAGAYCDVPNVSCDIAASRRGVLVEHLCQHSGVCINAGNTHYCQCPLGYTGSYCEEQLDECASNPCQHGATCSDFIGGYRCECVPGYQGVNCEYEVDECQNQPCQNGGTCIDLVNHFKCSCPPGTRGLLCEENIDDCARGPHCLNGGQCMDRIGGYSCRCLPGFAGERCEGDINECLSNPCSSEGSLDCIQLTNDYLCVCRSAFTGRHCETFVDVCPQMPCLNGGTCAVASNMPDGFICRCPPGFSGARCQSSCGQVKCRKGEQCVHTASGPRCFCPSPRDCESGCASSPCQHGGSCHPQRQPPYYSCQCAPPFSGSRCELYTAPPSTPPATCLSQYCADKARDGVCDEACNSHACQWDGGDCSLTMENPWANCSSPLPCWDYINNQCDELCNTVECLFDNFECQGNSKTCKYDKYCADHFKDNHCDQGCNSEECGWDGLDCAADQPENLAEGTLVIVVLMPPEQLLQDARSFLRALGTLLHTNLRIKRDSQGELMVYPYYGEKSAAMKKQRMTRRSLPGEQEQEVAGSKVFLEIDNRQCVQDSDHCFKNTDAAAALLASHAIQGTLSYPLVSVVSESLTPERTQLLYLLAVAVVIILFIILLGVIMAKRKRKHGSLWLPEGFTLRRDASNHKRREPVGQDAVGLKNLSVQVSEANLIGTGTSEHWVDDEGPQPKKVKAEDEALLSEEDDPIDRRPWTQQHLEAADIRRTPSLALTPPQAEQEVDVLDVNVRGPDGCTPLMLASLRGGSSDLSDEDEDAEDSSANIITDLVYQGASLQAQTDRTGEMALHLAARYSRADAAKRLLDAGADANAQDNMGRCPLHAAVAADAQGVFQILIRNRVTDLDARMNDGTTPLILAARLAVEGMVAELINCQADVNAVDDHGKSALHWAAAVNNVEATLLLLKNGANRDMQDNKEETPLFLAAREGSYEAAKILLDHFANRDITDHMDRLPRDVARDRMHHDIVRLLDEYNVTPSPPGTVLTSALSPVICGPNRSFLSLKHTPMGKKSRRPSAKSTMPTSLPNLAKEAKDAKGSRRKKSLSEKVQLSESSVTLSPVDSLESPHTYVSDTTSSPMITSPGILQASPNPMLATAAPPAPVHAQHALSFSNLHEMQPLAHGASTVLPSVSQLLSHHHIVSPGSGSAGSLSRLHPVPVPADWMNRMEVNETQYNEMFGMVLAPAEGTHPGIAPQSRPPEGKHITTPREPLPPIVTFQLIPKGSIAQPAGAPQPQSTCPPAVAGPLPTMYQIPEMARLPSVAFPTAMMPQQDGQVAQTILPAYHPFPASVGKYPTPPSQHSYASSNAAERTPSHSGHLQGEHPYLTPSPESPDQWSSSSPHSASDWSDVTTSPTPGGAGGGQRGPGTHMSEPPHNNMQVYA
test description: small molecules binding Notch2 protein – biochemical, small-molecule microarray, 635 nm fluorescence, stem cell growth factors, primary screen (AID 1073)
setup conditions: higher = more signal
readout kind: composite z-score
Give only the figure.

Previously resolved entries follow.
CCCCN1CC=CC23O[C@@H]4/C=C\CCCOC(=O)C4[C@H]2C(=O)N(CCCO)[C@@H]3C1=O (stereo partly specified)    -0.913
COc1ccc(C(O)C2C=CC3C(=O)N(C)C(=O)C3N2NC(=O)OC(C)(C)C)c2ccccc12 (stereo unspecified)    1.62

Consider the compound "COCCOC(=O)N1C(=O)[C@@]2(c3cc(C#CC4(O)CCCCCC4)ccc31)[C@H](c1ccccc1OCCO)N1[C@H](c3ccccc3)[C@H](c3ccccc3)OC(=O)[C@H]1[C@@H]2C(=O)N1CCc2cc(OC)c(OC)cc2C1" and give its measured composite z-score.
1.03

Would you kindly share the measured composite z-score for "C=CC[C@@]1(C(=O)N2CCCCC2)N=C(c2ccc(OCCCO)cc2)O[C@@H]1c1ccccc1N=[N+]=[N-]" ?
1.55

What value of measured composite z-score is listed for "COc1ccc([Si](C)(C)[C@@H]2[C@@H](CC(=O)N3Cc4ccccc4C[C@H]3CO)O[C@]3(C(=O)N(Cc4cccc(N5CCC5=O)c4)c4ccccc43)[C@H]2C)cc1" ?
0.596

I would be grateful if you could share the reported composite z-score for "COc1ccc([Si](C)(C)[C@@H]2[C@@H](CCn3cc(CCO)nn3)O[C@]3(C(=O)N(Cc4cccc(N5C(=O)c6cccc7cccc5c67)c4)c4ccccc43)[C@H]2C)cc1" .
0.275

###

test description: Pseudomonas biofilm growth suppression – PAO1 strain, BacTiter-Glo luminescence, LB-PBS, primary screen (AID 1144)
setup conditions: P. aeruginosa PAO1 biofilm, 12 h, higher = more signal
z-score for assorted molecules
Kindly provide the number alone.

// solved cases for z-score follow
OB1C=CCC(CCc2ccccc2)O1 (stereo not given)    -1.35
COc1ccc([C@H]2C[C@H]3C(Br)=C[C@@]2(CO)C(=O)[C@]32CO2)cc1    -0.23
O=C1C2C=CC(C(O)c3ccc4c(c3)OCO4)N(Nc3ccc([N+](=O)[O-])cc3)C2C(=O)N1c1ccccc1 (stereo not given)    0.105
O=C1OCCC/C=C\[C@H]2OC34C=CCN(c5ccc6ccccc6c5)C(=O)[C@H]3N(CCCCCO)C(=O)[C@@H]4C12 (stereo not given in full)    2.33

Quick one: z-score for "COc1ccccc1CN1C(=O)c2ccccc2[C@@]2(Cc3ccccc3N(CCCN(C)C)C2=O)[C@@H]1c1ccc(CO)cc1" ?
-0.516

###

target desc: NADPH oxidase 5 (Homo sapiens)
test description: compounds shifting NOX5 Amplex Red fluorescence – cell-based, HEK293-NOX5, NOX inhibitor project, primary screen (AID 1161)
setup conditions: HEK293-NOX5, ionomycin, 45 min, higher = more signal
readout kind: z-score
The answer should be a number; do not append a unit.

// worked examples, z-score included
CCOC(=O)C1=C[C@@H](C(C)C)N(S(=O)(=O)c2ccc(C)cc2)[C@H]1c1ccccc1F    1.06
COc1cc(CO)cc(I)c1O[C@H]1C=C(C(=O)NCCO)C[C@@H](NC[C@@H]2CCCO2)[C@@H]1O    -0.0544
CC(C)[Si](C#CCCCC#N)(Oc1ccccc1Br)C(C)C    -0.18
CN(C)CCCC[C@@H]1NC(=O)[C@H]2C[C@@H](C(=O)NCCCCCN)[C@@H](c3cccc(OCCO)c3)N2C1=O    1.52

Returns the measured z-score for the input compound. Input: "CC(C)CNC(=O)[C@@]1(Cc2ccccc2I)c2ccccc2C(=O)N(Cc2ccccc2C(F)(F)F)[C@H]1c1ccc(CO)cc1"
0.401

###

target desc: NADPH oxidase 4 (Homo sapiens) (UniProt Q9NPH5)
Sequence (Q9NPH5 whole entry, looked up): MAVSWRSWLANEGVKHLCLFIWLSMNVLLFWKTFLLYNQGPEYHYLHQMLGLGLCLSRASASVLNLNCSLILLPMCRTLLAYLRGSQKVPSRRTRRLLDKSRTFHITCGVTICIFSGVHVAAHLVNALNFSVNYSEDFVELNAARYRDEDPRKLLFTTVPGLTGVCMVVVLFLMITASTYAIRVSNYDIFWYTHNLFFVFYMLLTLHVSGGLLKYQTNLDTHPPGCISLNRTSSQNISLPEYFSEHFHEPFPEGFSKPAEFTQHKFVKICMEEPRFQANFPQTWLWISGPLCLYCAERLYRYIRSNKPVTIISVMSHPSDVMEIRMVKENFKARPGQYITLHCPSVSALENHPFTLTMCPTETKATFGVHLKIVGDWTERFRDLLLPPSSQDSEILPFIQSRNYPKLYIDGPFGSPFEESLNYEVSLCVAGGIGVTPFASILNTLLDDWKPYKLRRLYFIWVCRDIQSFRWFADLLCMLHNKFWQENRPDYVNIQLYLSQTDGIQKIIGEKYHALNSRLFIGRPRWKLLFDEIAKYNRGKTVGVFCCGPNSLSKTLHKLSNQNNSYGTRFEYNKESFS
test description: compounds shifting NOX4 Amplex Red fluorescence – cell-based, HEK293-NOX4, tetracycline-induced, NOX inhibitor project, primary screen (AID 1160)
setup conditions: HEK293-NOX4, Amplex Red H2O2 fluorescence, 45 min; higher = more signal, called active from +8 up or from −8 down
# z-score per record follows
API doc: respond with a numeric literal and nothing else, no unit.

Record lookup: for NADPH oxidase 4 (Homo sapiens) (UniProt Q9NPH5), what z-score belongs to "COC(=O)c1c(CC[C@@H](CO)NC(=O)NCCc2c[nH]c3ccccc23)oc(C(=O)Cc2ccccc2)c1C(=O)OC" ?
-1.16

Provide value of z-score for this record tested with NADPH oxidase 4 (Homo sapiens) (UniProt Q9NPH5): "C=CC[C@]1(C(=O)NCc2ccccc2)N=C(c2ccc(OCCCO)cc2)O[C@H]1c1ccccc1CN=[N+]=[N-]"
0.617

For NADPH oxidase 4 (Homo sapiens) (UniProt Q9NPH5), provide z-score of "Cc1ccc(S(=O)(=O)N2C[C@@H](C(=O)O)[C@H](Sc3ccccc3)C[C@H]2c2ccccc2)cc1" please.
0.111

Which z-score is reported with NADPH oxidase 4 (Homo sapiens) (UniProt Q9NPH5) for this entry: "C[N+](C)(C)CCCC[C@@H]1NC(=O)[C@H]2C[C@@H](C(=O)NCCCCCCNC(=O)CS)[C@@H](c3ccc(O)cc3)N2C1=O" ?
0.507

Give z-score (NADPH oxidase 4 (Homo sapiens) (UniProt Q9NPH5)) of the following compound: "NCCCCCNC(=O)[C@H]1C[C@H]2C(=O)N[C@@H](Cc3ccccc3)C(=O)N2[C@H]1c1cccc(OCCO)c1"
0.875

Lab note: need z-score for "COc1ccc(CCNC(=O)[C@@]2(c3ccc([N+](=O)[O-])cc3)CC(=O)N(CC34CC5CC(CC(C5)C3)C4)[C@@H]2c2ccc(CO)cc2I)cc1" on NADPH oxidase 4 (Homo sapiens) (UniProt Q9NPH5), anyone have it?
-4.2

Fill in the recorded z-score for this compound, with NADPH oxidase 4 (Homo sapiens) (UniProt Q9NPH5) as test system: CN1C(=O)C2C=CC(C(O)c3c(F)cccc3Cl)N(NC(=O)OC(C)(C)C)C2C1=O (stereo unspecified)
-0.495

Missing value: z-score, NADPH oxidase 4 (Homo sapiens) (UniProt Q9NPH5), entry O=C1C2C=CC(C(O)c3ccc4c(c3)OCO4)N(Nc3ccc([N+](=O)[O-])cc3)C2C(=O)N1c1ccccc1 (stereo unspecified) . Fill in?
-3.31

###

Test system: Sam68 (KHDRBS1)
test description: compounds binding KHDRBS1 protein – biochemical, small-molecule microarray, 635 nm fluorescence, primary screen (AID 1125);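 also: score merges 667 nm channel intensity with signal to noise over triplicate slides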
setup conditions: higher = more signal
readout kind: composite z-score
Lab note: jot the number down without any unit.

A selection of reference data follows.
COc1cc(CO)cc(I)c1O[C@H]1C=C(C(=O)NCCO)C[C@@H](N(C(=O)c2cc3ccccc3oc2=O)C2CCCCCC2)[C@@H]1O    0.0348
COC(=O)[C@H](Cc1ccccc1)N[C@H](/C=C/C1CC1)[C@@H](O)Cc1ccccc1    -0.56

So what does the record say about composite z-score for O=C1C2C=CC(C(O)C=Cc3ccc([N+](=O)[O-])cc3)N(Nc3ccccc3F)C2C(=O)N1c1ccccc1 (centres undefined) ?
1.3

I would be grateful if you could share the reported composite z-score for "CC(C)[Si](C#CCCCC#N)(O[C@H](c1ccccc1)c1cn(Cc2cccc(Cl)c2)nn1)C(C)C" .
1.3

###

Recorded composite z-score by entry
test description: probe aEGFR binding to arrayed compounds – biochemical, biotinylated probe, 635/667 nm fluorescence, primary screen (AID 1097);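 also: probe is a biotinylated anti-EGFR antibody binding compounds printed on slides; score combines fluorescence near 667 nm and signal to noise of each spot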
setup conditions: small-molecule microarray, higher = more signal
Give only the figure.

Previously resolved entries follow.
CCOc1ccc(N2C(=O)CSC2c2cccc([N+](=O)[O-])c2)cc1 (configuration not stated)    -0.0697
O=C1C2C=CC(C(O)c3ccc(F)cc3)N(Nc3ccc([N+](=O)[O-])cc3)C2C(=O)N1c1ccccc1 (configuration not stated)    -0.0435
COCCOC(=O)N1C(=O)[C@@]2(c3ccccc31)[C@H](c1ccc(OCCO)cc1)N1[C@H](c3ccccc3)[C@H](c3ccccc3)OC(=O)[C@H]1[C@@H]2C(=O)N1CCc2cc(OC)c(OC)cc2C1    0.246
O=C1O[C@@H](c2ccccc2)[C@@H](c2ccccc2)N2[C@@H](c3ccccc3OCCO)[C@]3(C(=O)Nc4ccccc43)[C@@H](C(=O)O)[C@H]12    -0.185
CCCNC(=O)[C@@H]1c2ccccc2C(=O)N(Cc2ccccc2OC)[C@H]1c1ccc(CO)cc1    -0.142

Suppose we examine the molecule "O=C(CS)NCCCCCNC(=O)[C@H]1C[C@H]2C(=O)NCC(=O)N2[C@H]1c1cccc(OCCO)c1" ; what composite z-score value has been reported?
-0.0987

Recorded composite z-score of "COC(=O)c1c(CC[C@@H](CO)NC(=O)N[C@H](Cc2ccccc2)Cn2cc(-c3ccccn3)nn2)oc(C(C)=O)c1C(=O)OC" , please.
-0.096
